Reported Activity values are given for each entry in this list.
# assay_target: Cannabinoid receptor 2 (Homo sapiens, UniProt P34972)
# Sequence (P34972 whole entry): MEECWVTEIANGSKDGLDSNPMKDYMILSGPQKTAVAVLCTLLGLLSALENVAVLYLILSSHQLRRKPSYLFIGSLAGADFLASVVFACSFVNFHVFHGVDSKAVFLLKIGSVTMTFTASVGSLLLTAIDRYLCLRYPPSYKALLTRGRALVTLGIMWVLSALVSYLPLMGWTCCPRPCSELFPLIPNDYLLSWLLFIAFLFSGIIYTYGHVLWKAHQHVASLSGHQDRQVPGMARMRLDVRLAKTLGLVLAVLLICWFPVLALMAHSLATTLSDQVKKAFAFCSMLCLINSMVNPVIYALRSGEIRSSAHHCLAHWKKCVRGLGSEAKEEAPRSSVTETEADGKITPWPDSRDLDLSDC
# assay_details: Agonist activity at human recombinant CB2 receptor expressed in HEK293 cells coexpressing Galphaq/o5 assessed as calcium mobilization by FLIPR assay relative to CP-55940
# Type: functional, cell-based
attribute_measured: Activity (%)

compound=CC1(C)C(C(=O)c2cn(Cc3cccnc3)c3ccccc23)C1(C)C reading=103
compound="CC1(C(=O)c2cn(CC3CCOCC3)c3ccccc23)CC(F)(F)C1(F)F (stereo unspecified)" reading=46
compound=O=C(c1cn(CCN2CCOCC2)c2ccccc12)C1CCCCC1 reading=44
compound=CCCCn1cc(C(=O)C2C(C)(C)C2(C)C)c2ccccc21 reading=102
compound=O=C(c1cn(CCN2CCOCC2)c2ccccc12)C1CCCCCC1 reading=48
compound=COCCCn1cc(C(=O)C2C(C)(C)C2(C)C)c2ccccc21 reading=108

###

The following compounds are shown together with reported Ki values.
# assay_target: Cannabinoid receptor 1 (Homo sapiens)
# Sequence (P21554 whole entry): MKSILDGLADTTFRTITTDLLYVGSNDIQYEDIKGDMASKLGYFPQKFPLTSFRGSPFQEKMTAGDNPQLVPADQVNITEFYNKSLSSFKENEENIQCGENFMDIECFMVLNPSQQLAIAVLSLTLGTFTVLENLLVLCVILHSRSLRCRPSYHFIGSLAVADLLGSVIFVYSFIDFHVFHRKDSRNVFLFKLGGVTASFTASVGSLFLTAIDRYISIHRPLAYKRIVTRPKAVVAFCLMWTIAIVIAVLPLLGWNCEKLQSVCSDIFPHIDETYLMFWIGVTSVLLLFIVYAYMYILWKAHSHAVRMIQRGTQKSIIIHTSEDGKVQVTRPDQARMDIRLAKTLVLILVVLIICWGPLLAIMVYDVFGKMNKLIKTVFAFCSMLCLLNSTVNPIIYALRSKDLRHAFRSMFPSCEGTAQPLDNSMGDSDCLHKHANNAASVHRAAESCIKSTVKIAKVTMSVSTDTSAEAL
# assay_details: Displacement of [3H]CP-55940 from human recombinant CB1 receptor expressed in CHO cells
# Assay type: cell-based
# condition_info: read-out: Ki
attribute_measured: Ki

compound=CC(C)[C@H]1CC[C@H](C(=O)c2cn(CCN3CCOCC3)c3ccccc23)CC1 attribute_measured=Ki reading="> 10 µM"
compound=Cc1ncsc1CCn1cc(C(=O)C2C(C)(C)C2(C)C)c2ccccc21 attribute_measured=Ki reading="2 µM"
compound=CC1(C)C(C(=O)c2cn(CC3OCCO3)c3ccccc23)C1(C)C attribute_measured=Ki reading="0.28 µM"
compound=O=C(c1cn(CCN2CCOCC2)c2ccccc12)[C@@H]1CC12CCCCC2 attribute_measured=Ki reading="3.06 µM"
compound=CC1(C)C(C(=O)c2cn(C(=O)CC3CCOCC3)c3ccccc23)C1(C)C attribute_measured=Ki reading="> 10 µM"
compound=CC1(C)C(C(=O)c2cn(Cc3cccnc3)c3ccccc23)C1(C)C attribute_measured=Ki reading="2.03 µM"
compound=CC(=O)CCCCn1cc(C(=O)C2C(C)(C)C2(C)C)c2ccccc21 attribute_measured=Ki reading="0.38 µM"
compound="CC1(C(=O)c2cn(CC3CCOCC3)c3ccccc23)CC(F)(F)C1(F)F (stereo not drawn)" attribute_measured=Ki reading="1.45 µM"
compound=CC1(C)C(C(=O)c2cn(CCN)c3ccccc23)C1(C)C attribute_measured=Ki reading="> 10 µM"
compound=COC(=O)CCn1cc(C(=O)C2C(C)(C)C2(C)C)c2ccccc21 attribute_measured=Ki reading="1.83 µM"
compound=CC1(C)C(C(=O)c2cn(CCCCO)c3ccccc23)C1(C)C attribute_measured=Ki reading="> 5.6 µM"
compound=CC1(C)C(C(=O)c2cn(CCc3nsc(Cl)n3)c3ccccc23)C1(C)C attribute_measured=Ki reading="4.2 µM"
compound="CN1CCCCC1Cn1cc(C(=O)C2C(C)(C)C2(C)C)c2ccccc21 (stereo not drawn)" attribute_measured=Ki reading="0.0055 µM"
compound=CCCn1cc(C(=O)C2C(C)(C)C2(C)C)c2ccccc21 attribute_measured=Ki reading="4.3 µM"
compound=CC1(C)C(C(=O)c2cn(Cc3ccccc3)c3ccccc23)C1(C)C attribute_measured=Ki reading="0.21 µM"
compound=O=C(c1cn(CC2CCOCC2)c2ccccc12)C12CC3CC(CC(C3)O1)C2 attribute_measured=Ki reading="0.538 µM"
compound=CC1(C)C(C(=O)c2cn(CCC(=O)O)c3ccccc23)C1(C)C attribute_measured=Ki reading="> 10 µM"
compound=CC1(C)C(C(=O)c2cn(C[C@H]3CCCO3)c3ccccc23)C1(C)C attribute_measured=Ki reading="0.72 µM"
compound="CC1(C)C(C(=O)c2cn(CC3CCOC3)c3ccccc23)C1(C)C (stereo not drawn)" attribute_measured=Ki reading="0.63 µM"
compound=CC1(C)C(C(=O)c2cn(CCC3CCNCC3)c3ccccc23)C1(C)C attribute_measured=Ki reading="> 10 µM"
compound=CN(C)CCn1cc(C(=O)C2C(C)(C)C2(C)C)c2ccccc21 attribute_measured=Ki reading="> 10 µM"
compound=CC1(C)C(C(=O)c2cn(CCc3cccs3)c3ccccc23)C1(C)C attribute_measured=Ki reading="0.7 µM"
compound=CC1(C)C(C(=O)c2cn(C[C@@H]3CCCO3)c3ccccc23)C1(C)C attribute_measured=Ki reading="0.22 µM"
compound=CC1(C)C(C(=O)c2cn(CCn3cccc3)c3ccccc23)C1(C)C attribute_measured=Ki reading="0.31 µM"
compound=CC[C@H]1CC[C@H](C(=O)c2cn(CCN3CCOCC3)c3ccccc23)CC1 attribute_measured=Ki reading="0.616 µM"
compound=O=C(c1cn(CCN2CCOCC2)c2ccccc12)C1CCCC1 attribute_measured=Ki reading="> 10 µM"
compound=CC1(C)C(C(=O)c2cn(CCO)c3ccccc23)C1(C)C attribute_measured=Ki reading="> 10 µM"
compound=CC1(C)C(C(=O)c2cn(CCN3CCCCC3)c3ccccc23)C1(C)C attribute_measured=Ki reading="0.556 µM"
